- METHOD_NOTES: physchem
- EXPERIMENTAL_SETUP: water, 25 °C

>  <MOLECULE>
O=Cc1ccc(C(=O)O)cc1 [4-CBA, 4-carboxybenzaldehyde]

>  <solubility>
< 1670 µg/mL

$$$$

* * *

solubility for assorted compounds
- METHOD_NOTES: physchem
- EXPERIMENTAL_SETUP: 25 °C, organic solvent or mixture

>  <COMPOUND>
Oc1ccc(O)cc1 [HQ, hydroquinone]

>  <solubility / mg/mL>
1000

$$$$
>  <COMPOUND>
O=Cc1ccc(O)cc1 [4-HBA, 4-hydroxybenzaldehyde]

>  <solubility / mg/mL>
1000

$$$$
